measured on: HLA-B*15:01
assay comment: IEDB peptide-MHC binding, purified MHC/competitive/fluorescence; filed as Kd, often an IC50 or EC50 that approximates it; bounds were set here for any values at or beyond the usual limits of such assays
reported conditions: source organism: Vibrio parahaemolyticus RIMD 2210633

{"primary sequence": "HVIYFTAFT", "Kd": "≥ 20 µM"}

====

measured on: HLA-A*31:01
assay comment: IEDB peptide-MHC binding, purified MHC/competitive/radioactivity; filed as Kd, often an IC50 or EC50 that approximates it; bounds were set here for any values at or beyond the usual limits of such assays
reported conditions: source organism: SARS coronavirus Tor2
endpoint name: Kd (nM)

{"primary sequence": "SLTVLFDGR", "endpoint name": "Kd", "qualifier operator": "=", "recorded value": 350}
{"primary sequence": "TFFSTFKCY", "endpoint name": "Kd", "qualifier operator": "=", "recorded value": 797}
{"primary sequence": "NLLDSYFVVK", "endpoint name": "Kd", "qualifier operator": "=", "recorded value": 7220}
{"primary sequence": "MQNCLLRLK", "endpoint name": "Kd", "qualifier operator": "=", "recorded value": 13.1}
{"primary sequence": "RQLFKPLTK", "endpoint name": "Kd", "qualifier operator": "=", "recorded value": 2380}
{"primary sequence": "SVFYLYLTFY", "endpoint name": "Kd", "qualifier operator": "=", "recorded value": 2860}
{"primary sequence": "GVVREFLTR", "endpoint name": "Kd", "qualifier operator": "=", "recorded value": 899}
{"primary sequence": "IMASLVLAR", "endpoint name": "Kd", "qualifier operator": "=", "recorded value": 18}
{"primary sequence": "RFQPFQQFGR", "endpoint name": "Kd", "qualifier operator": "=", "recorded value": 1.06}
{"primary sequence": "DQDALFAYTK", "endpoint name": "Kd", "qualifier operator": "=", "recorded value": 3720}
{"primary sequence": "SLTSLLKTHR", "endpoint name": "Kd", "qualifier operator": "=", "recorded value": 105}
{"primary sequence": "VTCAAYYFMK", "endpoint name": "Kd", "qualifier operator": "=", "recorded value": 199}
{"primary sequence": "AFHTPAFDK", "endpoint name": "Kd", "qualifier operator": "=", "recorded value": 5640}
{"primary sequence": "QTVKPGNFNK", "endpoint name": "Kd", "qualifier operator": "=", "recorded value": 1510}
{"primary sequence": "PVNQFTGYLK", "endpoint name": "Kd", "qualifier operator": "≥", "recorded value": 70000}
{"primary sequence": "FVFPLNSKVK", "endpoint name": "Kd", "qualifier operator": "=", "recorded value": 12800}
{"primary sequence": "FLLNKEMYLK", "endpoint name": "Kd", "qualifier operator": "=", "recorded value": 2080}
{"primary sequence": "SFIEDLLFNK", "endpoint name": "Kd", "qualifier operator": "=", "recorded value": 53.5}
{"primary sequence": "NFLKEQHCQK", "endpoint name": "Kd", "qualifier operator": "=", "recorded value": 1470}
{"primary sequence": "VLTSEEVVLK", "endpoint name": "Kd", "qualifier operator": "≥", "recorded value": 70000}
{"primary sequence": "LAMDEFIQR", "endpoint name": "Kd", "qualifier operator": "=", "recorded value": 362}
{"primary sequence": "FLKEQHCQK", "endpoint name": "Kd", "qualifier operator": "=", "recorded value": 802}
